Procedure Summary: Displacement of Ethidium bromide from G6 (5'-GGGGGG-3') hairpin DNA (unknown origin)/EtBr complex assessed as decrease in initial absorbance of DNA by crystal violet staining based analysis
Quantity: C50
// unit must come after the numeric part

CN(C)c1ccc(C(=C2C=CC(=[N+](C)C)C=C2)c2ccc(OCc3ccccc3COc3ccc(C(=C4C=CC(=[N+](C)C)C=C4)c4ccc(N(C)C)cc4)cc3)cc2)cc1 1 µM
CN(C)c1ccc(C(=C2C=CC(=[N+](C)C)C=C2)c2ccc(C#Cc3cc4c(cc3C#Cc3ccc(C(=C5C=CC(=[N+](C)C)C=C5)c5ccc(N(C)C)cc5)cc3)OCO4)cc2)cc1 1.32 µM
CN(C)c1ccc(C(=C2C=CC(=[N+](C)C)C=C2)c2ccc(/C=C/c3cc4c(cc3/C=C/c3ccc(C(=C5C=CC(=[N+](C)C)C=C5)c5ccc(N(C)C)cc5)cc3)OCO4)cc2)cc1 1.1 µM

Requested field: C50. Item: CN(C)c1ccc(C(=C2C=CC(=[N+](C)C)C=C2)c2ccccc2-c2ccccc2-c2ccccc2C(=C2C=CC(=[N+](C)C)C=C2)c2ccc(N(C)C)cc2)cc1
0.51 µM

And for CN(C)c1ccc(C(=C2C=CC(=[N+](C)C)C=C2)c2ccc(-c3cc4c(cc3-c3ccc(C(=C5C=CC(=[N+](C)C)C=C5)c5ccc(N(C)C)cc5)cc3)OCO4)cc2)cc1 ?
1.25 µM

###

Procedure Summary: Displacement of Ethidium bromide from cMyc (5'-CACGTG-3') hairpin DNA (unknown origin)/EtBr complex assessed as decrease in initial absorbance of DNA by crystal violet staining based analysis
C50 values for the compounds below.
Give just the number in µM; leave the unit off.

// below: answered compounds
CN(C)c1ccc(C(=C2C=CC(=[N+](C)C)C=C2)c2ccc(-c3cc4c(cc3-c3ccc(C(=C5C=CC(=[N+](C)C)C=C5)c5ccc(N(C)C)cc5)cc3)OCO4)cc2)cc1 1.42
CN(C)c1ccc(C(=C2C=CC(=[N+](C)C)C=C2)c2ccccc2-c2ccccc2-c2ccccc2C(=C2C=CC(=[N+](C)C)C=C2)c2ccc(N(C)C)cc2)cc1 0.57

Requested field: C50. Item: CN(C)c1ccc(C(=C2C=CC(=[N+](C)C)C=C2)c2ccc(OCc3ccccc3COc3ccc(C(=C4C=CC(=[N+](C)C)C=C4)c4ccc(N(C)C)cc4)cc3)cc2)cc1
1.56

And for CN(C)c1ccc(C(=C2C=CC(=[N+](C)C)C=C2)c2ccc(C#Cc3cc4c(cc3C#Cc3ccc(C(=C5C=CC(=[N+](C)C)C=C5)c5ccc(N(C)C)cc5)cc3)OCO4)cc2)cc1 ?
1.95

And for CN(C)c1ccc(C(=C2C=CC(=[N+](C)C)C=C2)c2ccc(/C=C/c3cc4c(cc3/C=C/c3ccc(C(=C5C=CC(=[N+](C)C)C=C5)c5ccc(N(C)C)cc5)cc3)OCO4)cc2)cc1 ?
1.8

###

Test system: DNA
Procedure Summary: Displacement of Ethidium bromide from (AT)5 (5'-GGGATATA-TATATCCC-3') DNA (unknown origin)/EtBr complex assessed as decrease in initial absorbance of DNA by crystal violet staining based analysis
Format: nucleic-acid assay
Quantity: C50 (µM)
Give just the number in µM; leave the unit off.

Cc1cc(N(C)C)cc(C)c1C(=C1C=CC(=[N+](C)C)C=C1)c1ccc(N(C)C)cc1 1.57
CN(C)c1ccc(C(=C2C=CC(=[N+](C)C)C=C2)c2ccc(N(C)C)c(-c3ccccc3)c2)cc1 2.75
CN(C)c1ccc(C(=C2C=CC(=[N+](C)C)C=C2)c2ccc3cc(N(C)C)ccc3c2)cc1 0.32
CN(C)c1ccc(C(=C2C=CC(=[N+](C)C)C=C2)c2ccc(N(C)C)c(-c3ccccc3)c2)cc1-c1ccccc1 1.81
CN(C)c1ccc(C(=C2C=CC(=[N+](C)C)C(c3ccccc3)=C2)c2ccc(N(C)C)c(-c3ccccc3)c2)cc1-c1ccccc1 2.71

From here, focus on the item given below.
Requested field: C50. Item: CC1=CC(=[N+](C)C)C=CC1=C(c1ccc(N(C)C)cc1C)c1ccc(N(C)C)cc1C
2.3

###

Procedure Summary: Displacement of Ethidium bromide from cMyc (5'-CACGTG-3') hairpin DNA (unknown origin)/EtBr complex assessed as binding constant by crystal violet staining based analysis
K values for the compounds below.
Give just the number in M⁻¹; leave the unit off.

CN(C)c1ccc(C(=C2C=CC(=[N+](C)C)C=C2)c2ccc(OCc3ccccc3COc3ccc(C(=C4C=CC(=[N+](C)C)C=C4)c4ccc(N(C)C)cc4)cc3)cc2)cc1 5.06e+06
CN(C)c1ccc(C(=C2C=CC(=[N+](C)C)C=C2)c2ccc(/C=C/c3cc4c(cc3/C=C/c3ccc(C(=C5C=CC(=[N+](C)C)C=C5)c5ccc(N(C)C)cc5)cc3)OCO4)cc2)cc1 32000
CN(C)c1ccc(C(=C2C=CC(=[N+](C)C)C=C2)c2ccccc2-c2ccccc2-c2ccccc2C(=C2C=CC(=[N+](C)C)C=C2)c2ccc(N(C)C)cc2)cc1 114000

From here, focus on the item given below.
Requested field: K. Item: Cc1cc(N(C)C)cc(C)c1C(=C1C=CC(=[N+](C)C)C=C1)c1ccc(N(C)C)cc1
1.26e+06

###

Tested on: Calf thymus DNA
Procedure Summary: Binding affinity to calf thymus DNA assessed as change in melting temperature by UV thermal denaturation assay
Type: nucleic-acid assay
Condition Details: Bos taurus
Quantity: ΔTm
// unit must come after the numeric part

CN(C)c1ccc(C(=C2C=CC(=[N+](C)C)C=C2)c2ccc(OCc3ccccc3COc3ccc(C(=C4C=CC(=[N+](C)C)C=C4)c4ccc(N(C)C)cc4)cc3)cc2)cc1 0.9 °C
CN(C)c1ccc(C(=C2C=CC(=[N+](C)C)C=C2)c2ccc(/C=C/c3cc4c(cc3/C=C/c3ccc(C(=C5C=CC(=[N+](C)C)C=C5)c5ccc(N(C)C)cc5)cc3)OCO4)cc2)cc1 3.3 °C

From here, focus on the item given below.
Requested field: ΔTm. Item: CN(C)c1ccc(C(=C2C=CC(=[N+](C)C)C=C2)c2ccccc2-c2ccccc2-c2ccccc2C(=C2C=CC(=[N+](C)C)C=C2)c2ccc(N(C)C)cc2)cc1
3.6 °C

###

Procedure Summary: Binding affinity to DDD (5-CGAATT-3') hairpin DNA (unknown origin) assessed as binding constant by isothermal titration calorimetry
K values for the compounds below.

// below: answered compounds
CN(C)c1ccc(C(=C2C=CC(=[N+](C)C)C=C2)c2ccc(OCc3ccccc3COc3ccc(C(=C4C=CC(=[N+](C)C)C=C4)c4ccc(N(C)C)cc4)cc3)cc2)cc1 20.5 10^5/M
CN(C)c1ccc(C(=C2C=CC(=[N+](C)C)C=C2)c2ccccc2-c2ccccc2-c2ccccc2C(=C2C=CC(=[N+](C)C)C=C2)c2ccc(N(C)C)cc2)cc1 21.1 10^5/M
Cc1cc(N(C)C)cc(C)c1C(=C1C=CC(=[N+](C)C)C=C1)c1ccc(N(C)C)cc1 14.6 10^5/M

Requested field: K. Item: CN(C)c1ccc(C(=C2C=CC(=[N+](C)C)C=C2)c2ccc(/C=C/c3cc4c(cc3/C=C/c3ccc(C(=C5C=CC(=[N+](C)C)C=C5)c5ccc(N(C)C)cc5)cc3)OCO4)cc2)cc1
7.54 10^5/M
